# system name: UniProtKB E9AMP2
# run description: cell-based
# Type: cell-based
# condition notes: read-out: Target occupancy Run 2
property measured: receptor occupancy at 10 µM (%)

>  <structure>
CN(C)Cc1cccc(N/C(=C2\C(=O)Nc3cc(C(N)=O)ccc32)c2ccccc2)c1

>  <property measured>
receptor occupancy at 10 µM

>  <assay value>
-17

$$$$
>  <structure>
Cc1cnc(NC(=O)Nc2cc(Br)c(C)cc2OC[C@@H]2CNCCO2)cn1

>  <property measured>
receptor occupancy at 10 µM

>  <assay value>
-30.5

$$$$
>  <structure>
O=C1NC(=O)/C(=C/c2ccc3nccc(-c4ccncc4)c3c2)S1

>  <property measured>
receptor occupancy at 10 µM

>  <assay value>
-1.5

$$$$
>  <structure>
Cc1nc(Nc2ncc(C(=O)Nc3c(C)cccc3Cl)s2)cc(N2CCN(CCO)CC2)n1

>  <property measured>
receptor occupancy at 10 µM

>  <assay value>
-30.7

$$$$

###

# system name: LmxCLK1 (Leishmania mexicana)
# Sequence (E9AMP2 1-422): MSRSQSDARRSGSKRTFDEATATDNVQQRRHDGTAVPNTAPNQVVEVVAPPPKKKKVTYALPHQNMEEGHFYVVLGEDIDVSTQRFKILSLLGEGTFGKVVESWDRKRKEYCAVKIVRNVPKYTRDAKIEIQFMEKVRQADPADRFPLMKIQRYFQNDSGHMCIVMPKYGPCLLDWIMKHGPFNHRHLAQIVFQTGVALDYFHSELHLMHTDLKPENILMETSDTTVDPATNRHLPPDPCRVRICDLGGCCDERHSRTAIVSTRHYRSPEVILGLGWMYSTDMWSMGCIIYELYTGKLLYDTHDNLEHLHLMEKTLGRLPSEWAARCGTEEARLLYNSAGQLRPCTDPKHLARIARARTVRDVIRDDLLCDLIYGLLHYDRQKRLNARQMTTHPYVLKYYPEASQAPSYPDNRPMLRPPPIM
# run description: biochemical
# Type: binding
# condition notes: DSF, 10 µM compound, 2 µM LmxCLK1, mean of two runs

>  <molecule>
COc1ccc(CNC(=O)Nc2ncc([N+](=O)[O-])s2)cc1 [AR-A014418]

>  <quantity unit>
°C

>  <ΔTm Average>
-0.1

$$$$
>  <molecule>
Cc1ccc(NC(=O)c2cccc(C(C)(C)C#N)c2)cc1Nc1ccc2ncn(C)c(=O)c2c1 [AZ 628]

>  <quantity unit>
°C

>  <ΔTm Average>
0.3

$$$$
>  <molecule>
Cn1c(Nc2ccc(C(F)(F)F)cc2)nc2cc(Oc3ccnc(-c4ncc(C(F)(F)F)[nH]4)c3)ccc21 [RAF265 (CHIR-265)]

>  <quantity unit>
°C

>  <ΔTm Average>
-0.2

$$$$
>  <molecule>
C#Cc1cccc(Nc2ncnc3cc(OCCOC)c(OCCO)cc23)c1 [OSI-420]

>  <quantity unit>
°C

>  <ΔTm Average>
0.1

$$$$

###

# system name: LmxCLK1 (Leishmania mexicana)
# Sequence (E9AMP2 1-422): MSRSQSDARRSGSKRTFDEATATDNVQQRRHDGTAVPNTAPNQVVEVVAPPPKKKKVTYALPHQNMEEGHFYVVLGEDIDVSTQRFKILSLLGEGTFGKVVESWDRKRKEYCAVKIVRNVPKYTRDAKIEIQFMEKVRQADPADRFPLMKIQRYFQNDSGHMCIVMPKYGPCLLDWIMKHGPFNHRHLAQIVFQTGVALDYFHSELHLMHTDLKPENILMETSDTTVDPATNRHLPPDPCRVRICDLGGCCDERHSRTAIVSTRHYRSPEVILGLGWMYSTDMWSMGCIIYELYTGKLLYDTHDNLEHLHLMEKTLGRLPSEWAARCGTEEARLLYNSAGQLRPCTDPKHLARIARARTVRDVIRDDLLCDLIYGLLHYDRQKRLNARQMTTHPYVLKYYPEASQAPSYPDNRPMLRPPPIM
# run description: biochemical
# Assay type: binding
# condition notes: DSF, 10 µM compound, 2 µM LmxCLK1, Run 2
We begin with a simple list: items and their reported ΔTm Run 2.

>  <compound>
CN1CC[C@H](c2c(O)cc(O)c3c(=O)cc(-c4ccccc4Cl)oc23)[C@H](O)C1.Cl [Flavopiridol HCl]

>  <ΔTm Run 2, °C>
-0.1

$$$$
>  <compound>
COc1cc2c(Nc3ccc(NC(=O)c4ccccc4)cc3)ncnc2cc1OCCCN1CCOCC1

>  <ΔTm Run 2, °C>
-0.2

$$$$
>  <compound>
C[C@@H](N)[C@H]1CC[C@H](C(=O)Nc2ccncc2)CC1.Cl.Cl [Y-27632 2HCl]

>  <ΔTm Run 2, °C>
0.1

$$$$
>  <compound>
COc1cc2c(Oc3ccc4[nH]c(C)cc4c3F)ncnc2cc1OCCCN1CCCC1

>  <ΔTm Run 2, °C>
0.1

$$$$
>  <compound>
Cc1ccc(C(=O)Nc2cccc(C(F)(F)F)c2)cc1Nc1nc(-c2cccnc2)nc2c1cnn2C

>  <ΔTm Run 2, °C>
-0.3

$$$$
>  <compound>
Cc1ccc(S(=O)(=O)/C=C/C#N)cc1

>  <ΔTm Run 2, °C>
-0.2

$$$$
